These data points were gathered from patent US20240270762A1.

System: A. baumannii CDC-0045
Test: microbe, parasite or virus in culture
Assay type: cell-based
Conditions: Acinetobacter baumannii, CDC0045, read-out: MIC, A. baumannii CDC-0045
# key: entry, value: MIC
observable: MIC

compound="O=C(NCCN1CCN(C(=O)NC(C(=O)N[C@H]2Cc3ccc(F)c(C(=O)O)c3OB2O)c2cc(F)c(O)c(O)c2Cl)C(=O)C1=O)Nc1cccc(O)c1 (stereo partly drawn)" measured_value="2 to 4 µg/mL"
compound="O=C(NCCCN1CCN(C(=O)NC(C(=O)N[C@H]2Cc3ccc(F)c(C(=O)O)c3OB2O)c2cc(F)c(O)c(O)c2Cl)C(=O)C1=O)c1cc(F)c(F)c(O)c1F (stereo partly drawn)" measured_value="< 1 µg/mL"
compound="Cc1cnccc1C(=O)NCCCN1CCN(C(=O)NC(C(=O)N[C@H]2Cc3ccc(F)c(C(=O)O)c3OB2O)c2cc(F)c(O)c(O)c2Cl)C(=O)C1=O (stereo partly drawn)" measured_value="< 1 µg/mL"
compound="O=C(O)c1c(F)ccc2c1OB(O)[C@@H](NC(=O)C(NC(=O)N1CCN(C3CCN(S(=O)(=O)c4ccc(O)cc4)CC3)C(=O)C1=O)c1cc(F)c(O)c(O)c1Cl)C2 (stereo partly drawn)" measured_value="< 1 µg/mL"
compound="O=C(NCCCN1CCN(C(=O)NC(C(=O)N[C@H]2Cc3ccc(F)c(C(=O)O)c3OB2O)c2cc(F)c(O)c(O)c2Cl)C(=O)C1=O)c1cc(O)cc(F)c1 (stereo partly drawn)" measured_value="< 1 µg/mL"
compound="O=C(O)c1c(F)ccc2c1OB(O)[C@@H](NC(=O)[C@H](NC(=O)N1CCN(C3CCN(C(=O)c4cc(F)c(F)c(O)c4F)CC3)C1=O)c1cc(F)c(O)c(O)c1Cl)C2 (single isomer, unassigned)" measured_value="< 1 µg/mL"
compound="O=C(NCCN1CCN(C(=O)NC(C(=O)N[C@H]2Cc3ccc(F)c(C(=O)O)c3OB2O)c2cc(F)c(O)c(O)c2Cl)C1=O)c1cccc(O)c1 (stereo partly drawn)" measured_value="2 to 4 µg/mL"
compound="O=C(O)c1c(F)ccc2c1OB(O)[C@@H](NC(=O)[C@H](NC(=O)N1CCN(C3CCN(C(=O)Nc4cc(O)ccc4F)CC3)C1=O)c1cc(F)c(O)c(O)c1Cl)C2 (single isomer, unassigned)" measured_value="< 1 µg/mL"
compound="O=C(NCCS(=O)(=O)N1CCN(C(=O)NC(C(=O)N[C@H]2Cc3ccc(F)c(C(=O)O)c3OB2O)c2cc(F)c(O)c(O)c2Cl)C1=O)c1cccc(O)c1 (stereo partly drawn)" measured_value="< 1 µg/mL"
compound=O=C(NCCCS(=O)(=O)N1CCN(C(=O)N[C@H](C(=O)N[C@H]2Cc3ccc(F)c(C(=O)O)c3OB2O)c2cc(F)c(O)c(O)c2Cl)C1=O)c1cccc(O)c1 measured_value="8 to 16 µg/mL"
compound="O=C(O)c1c(F)ccc2c1OB(O)[C@@H](NC(=O)C(NC(=O)N1CCN(CC3CCN(C(=O)Nc4cccc(O)c4)CC3)C(=O)C1=O)c1cc(F)c(O)c(O)c1Cl)C2 (stereo partly drawn)" measured_value="< 1 µg/mL"
compound="O=C(NCCCN1CCN(C(=O)NC(C(=O)N[C@H]2Cc3ccc(F)c(C(=O)O)c3OB2O)c2cc(F)c(O)c(O)c2Cl)C1=O)c1nccs1 (stereo partly drawn)" measured_value="< 1 µg/mL"
compound="CN(CCN1CCN(C(=O)NC(C(=O)N[C@H]2Cc3ccc(F)c(C(=O)O)c3OB2O)c2cc(F)c(O)c(O)c2Cl)C(=O)C1=O)S(=O)(=O)c1ccc(C(N)=O)cc1 (stereo partly drawn)" measured_value="< 1 µg/mL"
compound="O=C(O)c1c(F)ccc2c1OB(O)[C@@H](NC(=O)C(NC(=O)N1CCN(C3CCN(C(=O)Nc4ccc(F)c(O)c4)CC3)C(=O)C1=O)c1cc(F)c(O)c(O)c1Cl)C2 (stereo partly drawn)" measured_value="< 1 µg/mL"
compound="O=C(NCCCN1CCN(C(=O)NC(C(=O)N[C@H]2Cc3ccc(F)c(C(=O)O)c3OB2O)c2cc(F)c(O)c(O)c2Cl)C(=O)C1=O)c1cc(O)ccc1F (stereo partly drawn)" measured_value="< 1 µg/mL"
